System: DMS 273 small cell lung
EXPERIMENT: NCI tumour cell line growth inhibition, 48 h
ENDPOINT LABEL: TGI

COMPOUND | SUBJECT OF TEST | ENDPOINT LABEL | REPORTED MEASUREMENT
COc1cccc(C(=O)O)c1Cc1cccc2ccccc12 | DMS 273 small cell lung | TGI | > 100 µM
CCCN(CCC)C(=O)Cc1c2n(c3ccccc13)CCCc1ccccc1-2 | DMS 273 small cell lung | TGI | 23.2 µM
CC(=O)C1CC2(c3ccccc3)C(=O)c3ccccc3N2O1 (configuration not stated) | DMS 273 small cell lung | TGI | > 100 µM
O=c1[nH]nc2c3n[nH]c(=O)n3c3ccccc3n12 | DMS 273 small cell lung | TGI | > 100 µM
CP(=O)(CCSc1ccccc1)c1ccccc1 (configuration not stated) | DMS 273 small cell lung | TGI | > 100 µM
CCCCCCCCCCSS(=O)(=O)c1ccc(C)cc1 | DMS 273 small cell lung | TGI | 23 µM
CCCCCCc1ccc(O)cc1O | DMS 273 small cell lung | TGI | > 100 µM
